Target: T1, Proleukin® (aldesleukin) (human, UniProt P60568 21-153, limits assumed)
T1 construct: Variant of human wt IL-2 with C145S (C125S on mature IL-2); also called IL-2 (Proleukin®); human IL-2 (Proleukin)
T1 sequence (P60568 other isoform, or with tags, fused parts or gaps limits assumed): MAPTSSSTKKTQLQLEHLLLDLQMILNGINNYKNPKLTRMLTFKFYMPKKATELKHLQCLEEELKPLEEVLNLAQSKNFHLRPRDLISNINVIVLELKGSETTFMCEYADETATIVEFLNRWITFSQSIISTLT
Assay: ELISA, coated Proleukin, HEK293F supernatant 1:2
measured_attribute: ELISA value (Normal ELISA) (luminescence signal)
Hi! Could you send only the number? It should be in luminescence signal, unit omitted.

// returns reported ELISA value (Normal ELISA) for input Antibody No: 27 (antibody, human IgG1, kappa, N297A, V domains shown, VH N58Y + T30S; VK M33L; HEK293F supernatant) VH: EVQLVQSGAEVKKPGESLKISCKGSGYAFSNYLIEWVRQMPGKGLEWMGVINPGSGGTYYNEKFKGQVTISADKSISTAYLQWSSLKASDTAMYYCARWRGEGYYAYFDVWGQGTTVTVSS VL: AIRLTQSPSSFSASTGDRVTITCKASQSVDYQGDSYLNWYQQKPGKAPKLLIYAASNLESGVPSRFSGSGSGTDFTLTISSLQSEDFATYYCQQSNEDPYTFGGGTKVEIKR
7760

Here is the next binder: Antibody No: 31 (antibody, human IgG1, kappa, N297A, V domains shown, VK WT; HEK293F supernatant) VH: EVQLVQSGAEVKKPGESLKISCKGSGYAFSNYLIEWVRQMPGKGLEWMGVINPGSGGTYYNEKFKGQVTISADKSISTAYLQWSSLKASDTAMYYCARWRGEGYYAYYDVWGQGTTVTVSS VL: AIRLTQSPSSFSASTGDRVTITCKASQSVDYQGDSYMNWYQQKPGKAPKLLIYAASNLESGVPSRFSGSGSGTDFTLTISSLQSEDFATYYCQQSNEDPYTFGGGTKVEIKR
11400

Here is the next binder: Antibody No: 15 (antibody, human IgG1, kappa, N297A, V domains shown, VH N58Y; VK M33L + A50S; also called 108926) VH: EVQLVQSGAEVKKPGESLKISCKGSGYAFTNYLIEWVRQMPGKGLEWMGVINPGSGGTYYNEKFKGQVTISADKSISTAYLQWSSLKASDTAMYYCARWRGEGYYAYFDVWGQGTTVTVSS VL: AIRLTQSPSSFSASTGDRVTITCKASQSVDYQGDSYLNWYQQKPGKAPKLLIYSASNLESGVPSRFSGSGSGTDFTLTISSLQSEDFATYYCQQSNEDPYTFGGGTKVEIKR
11100
